test: NCI Yeast Anticancer Drug Screen. Data for the mlh1 rad18 strain (AID 175); conditions: S. cerevisiae mlh1 rad18 strain growth inhibition; at 50.0 µM (retest, dose inferred, filed as 5.0)
This is part of a sample that, as a whole, favours compounds with a hit. Of some 79,000 tested, about 15% had one in any assay. Calls of active or inactive are those of the source. Cut-off read from the data, not from the text of the source: active = growth inhibition above about 70%; inactive = the rest.
Bench note: report the call from active, inactive

Observe how each entry below is paired with its result.
OC1(c2ccccc2)CN(CCl)CC(c2ccccc2)O1 (centres undefined) | inactive
Cc1cc(S(=O)(=O)c2ccc(Cl)cc2)nc(S(=O)(=O)c2ccc(Cl)cc2)c1C#N | active
O=c1c(Cl)nsnc1Cl | active
O=C1OC2(c3ccccc31)c1cc(I)c(O)c(I)c1Oc1c2cc(I)c(O)c1I | active
O=[N+]([O-])c1ncn(C2OC(CO)C(O)C2O)c1S (centres undefined) | inactive
Cc1occc1C(=S)Nc1ccc(Cl)c(COC(C)(C)C)c1 | active
CCCOc1ccc(/C=N/NC(N)=S)cc1 | active
CC(C)(C)c1ccc(Br)c(CCC(=O)NO)c1 | active

Which result was noted for this compound in the test: NC1CCCCC1N.O=C([O-])c1ccc(N=Nc2cccc([N+](=O)[O-])c2)cc1O.O=C([O-])c1ccc(N=Nc2cccc([N+](=O)[O-])c2)cc1O.[Pt+4]
inactive

Which result was noted for this compound in the test: Oc1cc(Cl)cc2cc(Cl)cnc12
active

Which result was noted for this compound in the test: O=C(c1ccccc1)c1c(CO[N+](=O)[O-])n([O-])c2ccccc2[n+]1=O
active

Which result was noted for this compound in the test: O=C1CN(CCN2CCOCC2)CC(=O)N2CCCCN12
inactive

Which result was noted for this compound in the test: Brc1ccc(-c2c3ccccc3cc3c2ccc2ccccc23)cc1
inactive

Which result was noted for this compound in the test: Oc1ccc(CCCCCc2ccc(O)cc2)cc1
active

Which result was noted for this compound in the test: CC(C)(C)NCc1cc(C(C)(C)C)cc(-c2ccc(Cl)cc2)c1O
active

Which result was noted for this compound in the test: CCCCCCCCC1N(C)CCCN1C
active

Which result was noted for this compound in the test: CC1=C(C(=O)NCc2ccccc2)C(c2ccccc2O)C(C(=O)NCc2ccccc2)=C(C)N1
inactive

Which result was noted for this compound in the test: O=C(O)c1ccc([N+](=O)[O-])cc1.[Ag]
active
